# System tested: T1, recombinant biotinylated CD71 extracellular domain (Sino Biologics) with an N-terminal 6His tag (human, UniProt P02786 89-760, biotinylated (site not stated))
# T1 construct: extracellular domain; also called hCD71; huCD71 ECD
# T1 sequence (P02786 other isoform, or with tags, fused parts or gaps): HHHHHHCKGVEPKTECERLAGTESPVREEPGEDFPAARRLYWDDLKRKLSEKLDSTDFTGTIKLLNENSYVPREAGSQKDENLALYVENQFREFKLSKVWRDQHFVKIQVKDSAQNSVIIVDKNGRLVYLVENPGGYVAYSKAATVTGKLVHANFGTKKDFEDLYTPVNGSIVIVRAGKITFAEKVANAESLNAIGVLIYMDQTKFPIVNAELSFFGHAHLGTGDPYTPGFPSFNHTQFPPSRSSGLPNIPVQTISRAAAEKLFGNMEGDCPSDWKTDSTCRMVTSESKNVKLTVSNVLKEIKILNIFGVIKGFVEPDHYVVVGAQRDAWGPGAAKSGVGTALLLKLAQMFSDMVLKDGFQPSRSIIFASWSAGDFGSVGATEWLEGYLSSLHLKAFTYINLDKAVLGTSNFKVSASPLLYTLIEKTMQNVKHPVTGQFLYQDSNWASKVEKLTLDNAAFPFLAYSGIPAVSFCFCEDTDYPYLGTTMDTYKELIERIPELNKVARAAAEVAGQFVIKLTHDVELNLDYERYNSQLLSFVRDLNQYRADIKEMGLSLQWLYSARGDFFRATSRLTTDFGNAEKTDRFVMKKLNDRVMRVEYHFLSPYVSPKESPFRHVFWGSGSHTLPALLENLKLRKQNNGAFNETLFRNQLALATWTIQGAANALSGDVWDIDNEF
# Protocol summary: primary solution ELISA screen, signal on hCD71 over HSA
The entries below are paired with their reported hCD71:HSA.
Reported metric: hCD71:HSA

SEQ ID NO 49 (designed binder, not shown: small tags and cut ends, FN3 domain, hit of the apical domain panning) MLPAPKNLVVSRVTEDSARLSWTAPDAAFDSFPIAYAEPRPDGEAIVLTVPGSERSYDLTGLKPGTEYSVLIHGVKGGDWSLPLSAIFTT :: 70
SEQ ID NO 12 (designed binder, not shown: small tags and cut ends, FN3 domain, hit of the apical domain panning) MLPAPKNLVVSRVTEDSARLSWTAPDAAFDSFFIPYAEPSPTGEAIVLTVPGSERSYDLTGLKPGTEYSVLIHGVKGGHLSDPLSAISTT :: 25
SEQ ID NO 19 (designed binder, not shown: small tags and cut ends, FN3 domain, hit of the apical domain panning) MLPAPKNLVVSRVTEDSARLSWTAPDAAFDSFAITYTEAALCGEAIVLTVPGSERSYDLTGLKPGTEYPVPINGVKGGGTSGPLSAIFTT :: 53
SEQ ID NO 10 (designed binder, not shown: small tags and cut ends, FN3 domain, hit of the apical domain panning) MLPAPKNLVVSRVTEDSARLSWTAPDAAFDSFKIAYIETATRGEAIVLTVPGSERSYDLTGLKPGTEYVVPIPGVKGGNTSSPLSAIFTT :: 27
SEQ ID NO 81 (designed binder, not shown: small tags and cut ends, FN3 domain, hit of the apical domain panning) MLPAPKNLVVSRVTEDSARLSWQGVARAFDSFLITYVELRHLGEAIVLTVPGSERSYDLTGLKPGTEYPVWIQGVKGGSPSAPLSAEFTT :: 88
SEQ ID NO 37 (designed binder, not shown: small tags and cut ends, FN3 domain, hit of the apical domain panning) MLPAPKNLVVSRVTEDSARLSWTTPDAAFDSFPIYYWEVTITGEAIYLSVPGSERSYDLTGLKPGTEYPVDIPGVKGGAASPPLSAIFTT :: 103
SEQ ID NO 31 (designed binder, not shown: small tags and cut ends, FN3 domain, hit of the apical domain panning) MLPAPKNLVVSRVTEDSARLSWTAPDAAFDSFTIEYSEHPIDGEAIPLFVPGSERSYDLTGLKPGTEYYVRIHGVKGGWFSHPLWAFFTT :: 138
SEQ ID NO 97 (designed binder, not shown: small tags and cut ends, FN3 domain, hit of the apical domain panning) MLPAPKNLVVSRVTEDSARLSWTAPDAAFDSFHIWYEEETTIGEAIYLHVPGSERSYDLTGLKPGTEYEVHITGVKGGPYSRPLFANFTT :: 147
SEQ ID NO 34 (designed binder, not shown: small tags and cut ends, FN3 domain, hit of the apical domain panning) MLPAPKNLVVSRVTEDSARLSWTAPDAAFDSFYITYVELNLAGEAIVLTVPGSERSYDLTGLKPGTEYPVPILGVKGGSLSQPLSAIFTT :: 195
SEQ ID NO 67 (designed binder, not shown: small tags and cut ends, FN3 domain, hit of the apical domain panning) MLPAPKNLVVSRVTEDSARLSWTAPDAAFDSFTILYAEQAQFGEAIVLTVPGSERSYDLTGLKPGTEYPITGVKGGTRSGPLSAISTT :: 131

Values from patent US20220332795A1
